Target: recombinant human G9a protein (Homo sapiens, UniProt Q96KQ7)
Construct: purchased BPS Bioscience Inc. #51001
Sequence (Q96KQ7 785-1210 limits assumed): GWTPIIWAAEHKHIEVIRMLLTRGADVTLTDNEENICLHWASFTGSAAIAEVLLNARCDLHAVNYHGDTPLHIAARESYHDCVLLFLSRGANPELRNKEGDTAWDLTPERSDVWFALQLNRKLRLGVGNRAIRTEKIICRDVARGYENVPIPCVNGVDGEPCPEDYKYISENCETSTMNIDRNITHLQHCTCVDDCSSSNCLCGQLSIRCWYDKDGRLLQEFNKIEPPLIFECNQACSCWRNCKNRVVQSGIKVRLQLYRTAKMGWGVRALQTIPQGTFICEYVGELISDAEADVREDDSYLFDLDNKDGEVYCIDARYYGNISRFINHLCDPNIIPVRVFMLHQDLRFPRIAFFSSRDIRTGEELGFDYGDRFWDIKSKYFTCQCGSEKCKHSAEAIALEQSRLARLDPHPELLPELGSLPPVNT
Assay: G9a inhibitory activity test (ALPHA)
Format: biochemical
Details: read-out: Inhibitory activity (G9a IC50)
Consider the following molecules; for each one, report its IC50.

Please respond with reported IC50 (system recombinant human G9a protein (Homo sapiens, UniProt Q96KQ7)) for CCCC[C@H](NC(=O)c1[nH]c2c(c1CC)C(=O)CC(C)(C)C2)C(=O)Nc1ccccc1 .
50 to 200 nM

Please respond with reported IC50 (system recombinant human G9a protein (Homo sapiens, UniProt Q96KQ7)) for Cc1c(C(=O)NC(CCC2CC2)C(=O)Nc2cccc(CN(C)C)c2)[nH]c2c1C(=O)CC(C)(C)C2 (stereo not shown) .
< 50 nM

Please respond with reported IC50 (system recombinant human G9a protein (Homo sapiens, UniProt Q96KQ7)) for Cc1c(C(=O)NC(CCC2CC2)c2nc3cccc(C)c3n2C)[nH]c2c1C(=O)CC(C)(C)C2 (stereo not shown) .
50 to 200 nM

Please respond with reported IC50 (system recombinant human G9a protein (Homo sapiens, UniProt Q96KQ7)) for Cc1c(C(=O)NC(CCC2CC2)c2nc3cc(CO)ccc3n2C)[nH]c2c1C(=O)CC(C)(C)C2 (stereo not shown) .
≥ 200 nM

Please respond with reported IC50 (system recombinant human G9a protein (Homo sapiens, UniProt Q96KQ7)) for Cc1c(C(=O)NC(CCC2CC2)c2nc3c(CN(C)C)cccc3n2C)[nH]c2c1C(=O)CC(C)(C)C2 (stereo not shown) .
≥ 200 nM

Please respond with reported IC50 (system recombinant human G9a protein (Homo sapiens, UniProt Q96KQ7)) for CCCCC(NC(=O)c1[nH]c2c(c1C)C(=O)CC(C)(C)C2)C(=O)NCc1ccc(N2CCNCC2)cc1 (stereo not shown) .
< 50 nM

Please respond with reported IC50 (system recombinant human G9a protein (Homo sapiens, UniProt Q96KQ7)) for Cc1c(C(=O)NC(CCC2CC2)C(=O)Nc2cccnc2)[nH]c2c1C(=O)CC(C)(C)C2 (stereo not shown) .
≥ 200 nM

---

Target: recombinant human G9a protein (Homo sapiens)
Construct: purchased BPS Bioscience Inc. #51001
Assay: G9a inhibitory activity test (ALPHA)
Type: biochemical
Settings: biotinylated histone H3 peptide (1-21), SAM, read-out: Inhibitory activity (G9a IC50 value)
Consider the following molecules; for each one, report its IC50.

Supply reported IC50 belonging to this molecule: CCCCC(NC(=O)c1[nH]c2c(c1C)C(=O)CC(C)(C)C2)C(=O)Nc1cccc(C)c1OC (stereo not drawn)
≥ 200 nM

Supply reported IC50 belonging to this molecule: Cc1c(C(=O)NC(CCC2CC2)C(=O)Nc2ccc(N(C)C)nc2)[nH]c2c1C(=O)CC(C)(C)C2 (stereo not drawn)
50 to 200 nM

Supply reported IC50 belonging to this molecule: CCCCC(NC(=O)c1[nH]c2c(c1C)C(=O)CC(C)(C)C2)C(=O)Nc1cccc2ccccc12 (stereo not drawn)
≥ 200 nM

Supply reported IC50 belonging to this molecule: CCCCC(NC(=O)c1[nH]c2c(c1C)C(=O)CC(C)(C)C2)C(=O)Nc1nn(CC)c2ccccc12 (stereo not drawn)
≥ 200 nM

Supply reported IC50 belonging to this molecule: CCCCC(NC(=O)c1[nH]c2c(c1C)C(=O)CC(C)(C)C2)C(=O)NCc1ccc(Cl)cc1 (stereo not drawn)
≥ 200 nM

Supply reported IC50 belonging to this molecule: CCCCC(NC(=O)c1[nH]c2c(c1C)C(=O)CC(C)(C)C2)C(=O)Nc1ccc(OC2CCN(C)CC2)cc1OC (stereo not drawn)
< 50 nM

Supply reported IC50 belonging to this molecule: Cc1c(C(=O)NC(CCC2CC2)C(=O)Nc2ccc(C#N)cc2)[nH]c2c1C(=O)CC(C)(C)C2 (stereo not drawn)
50 to 200 nM

Supply reported IC50 belonging to this molecule: CCCCC(NC(=O)c1[nH]c2c(c1C)C(=O)CC(C)(C)C2)C(=O)NCc1ccccc1 (stereo not drawn)
≥ 200 nM

Supply reported IC50 belonging to this molecule: Cc1c(C(=O)NC(CCC2CC2)C(=O)N2CCc3ccccc32)[nH]c2c1C(=O)CC(C)(C)C2 (stereo not drawn)
50 to 200 nM

Supply reported IC50 belonging to this molecule: CCCCC(NC(=O)c1[nH]c2c(c1C)C(=O)CC(C)(C)C2)C(=O)Nc1ccc2[nH]ncc2c1 (stereo not drawn)
≥ 200 nM

Supply reported IC50 belonging to this molecule: Cc1c(C(=O)NC(CCC2CC2)C(=O)N2CCc3cc(Br)ccc32)[nH]c2c1C(=O)CC(C)(C)C2 (stereo not drawn)
≥ 200 nM

Supply reported IC50 belonging to this molecule: CCCCC(NC(=O)c1[nH]c2c(c1C)C(=O)CC(C)(C)C2)C(=O)Nc1ccc(N(C)C2CCN(C)CC2)nc1 (stereo not drawn)
< 50 nM

Supply reported IC50 belonging to this molecule: CCCCC(NC(=O)c1[nH]c2c(c1C)C(=O)CC(C)(C)C2)C(=O)Nc1cccc(C#N)c1 (stereo not drawn)
≥ 200 nM

Supply reported IC50 belonging to this molecule: O=C(NC(CCC1CC1)C(=O)Nc1ccc(OC2COC2)nc1)c1ccc(Nc2ccncc2)cc1 (stereo not drawn)
< 50 nM

Supply reported IC50 belonging to this molecule: CCCCC(NC(=O)c1[nH]c2c(c1C)C(=O)CC(C)(C)C2)C(=O)NCc1cccc2ccccc12 (stereo not drawn)
≥ 200 nM

Supply reported IC50 belonging to this molecule: CCCCC(NC(=O)c1[nH]c2c(c1C)C(=O)CC(C)(C)C2)C(=O)Nc1cccc(Cl)c1C (stereo not drawn)
≥ 200 nM

Supply reported IC50 belonging to this molecule: CCCCC(NC(=O)c1[nH]c2c(c1C)C(=O)CC(C)(C)C2)C(=O)Nc1ccccc1CCC (stereo not drawn)
≥ 200 nM

Supply reported IC50 belonging to this molecule: CSc1ccc(NC(=O)C(CCC2CC2)NC(=O)c2[nH]c3c(c2C)C(=O)CC(C)(C)C3)cn1 (stereo not drawn)
≥ 200 nM

Supply reported IC50 belonging to this molecule: CCCCC(NC(=O)c1[nH]c2c(c1C)C(=O)CC(C)(C)C2)C(=O)Nc1ccccc1C(C)C (stereo not drawn)
≥ 200 nM

Supply reported IC50 belonging to this molecule: CCCCC(NC(=O)c1[nH]c2c(c1C)C(=O)CC(C)(C)C2)C(=O)Nc1ccccc1OC (stereo not drawn)
≥ 200 nM

Supply reported IC50 belonging to this molecule: CCCCC(NC(=O)c1[nH]c2c(c1C)C(=O)CC(C)(C)C2)C(=O)NCc1cccc(Cl)c1 (stereo not drawn)
≥ 200 nM

Supply reported IC50 belonging to this molecule: CCc1ccccc1NC(=O)C(CCC1CC1)NC(=O)c1[nH]c2c(c1C)C(=O)CC(C)(C)C2 (stereo not drawn)
< 50 nM

Supply reported IC50 belonging to this molecule: Cc1c(C(=O)NC(CCC2CC2)C(=O)Nc2ccncc2)[nH]c2c1C(=O)CC(C)(C)C2 (stereo not drawn)
≥ 200 nM

Supply reported IC50 belonging to this molecule: CCCCC(NC(=O)c1[nH]c2c(c1C)C(=O)CC(C)(C)C2)C(=O)Nc1ccc(C)cc1 (stereo not drawn)
≥ 200 nM

Supply reported IC50 belonging to this molecule: CCc1nc(C)ccc1NC(=O)C(CCC1CC1)NC(=O)c1[nH]c2c(c1C)C(=O)CC(C)(C)C2 (stereo not drawn)
≥ 200 nM

Supply reported IC50 belonging to this molecule: CCCCC(NC(=O)c1[nH]c2c(c1C)C(=O)CC(C)(C)C2)C(=O)Nc1ccccc1COC (stereo not drawn)
≥ 200 nM

Supply reported IC50 belonging to this molecule: Cc1ccc2c(c1)N(C(=O)C(CCC1CC1)NC(=O)c1[nH]c3c(c1C)C(=O)CC(C)(C)C3)CC2 (stereo not drawn)
≥ 200 nM

Supply reported IC50 belonging to this molecule: CCCCC(NC(=O)c1[nH]c2c(c1C)C(=O)CC(C)(C)C2)C(=O)Nc1ccc(N2CCN(C)CC2)cc1 (stereo not drawn)
≥ 200 nM

Supply reported IC50 belonging to this molecule: Cc1ccc(NC(=O)C(CCC2CC2)NC(=O)c2[nH]c3c(c2C)C(=O)CC(C)(C)C3)cc1 (stereo not drawn)
50 to 200 nM

Supply reported IC50 belonging to this molecule: CCCCC(NC(=O)c1[nH]c2c(c1C)C(=O)CC(C)(C)C2)C(=O)Nc1ccc(CCN2CCCCC2)cc1 (stereo not drawn)
< 50 nM

---

Biological target: recombinant human G9a protein (Homo sapiens, UniProt Q96KQ7)
Construct: purchased BPS Bioscience Inc. #51001
Assay: G9a inhibitory activity test (ALPHA)
Assay type: biochemical
Settings: read-out: Inhibitory activity (G9a IC50)
pIC50: −log10 of the molar value.
Assay Metric: pIC50

Supply reported pIC50 belonging to this molecule: CCCCC(NC(=O)c1[nH]c2c(c1C)C(=O)CC(C)(C)C2)C(=O)Nc1ccccc1CN(C)C (stereo not shown) [Example 5-3]
≤ 6.70

Supply reported pIC50 belonging to this molecule: Cc1c(C(=O)NC(CCC2CC2)C(=O)N2CCc3c(OCCCN(C)C)cccc32)[nH]c2c1C(=O)CC(C)(C)C2 (stereo not shown) [Example 1-119]
≤ 6.70

Supply reported pIC50 belonging to this molecule: CCCCC(NC(=O)c1[nH]c2c(c1C)C(=O)CC(C)(C)C2)C(=O)Nc1ccc(N2CCCN(C)CC2)cc1 (stereo not shown) [Example 1-110]
6.70 to 7.30

Supply reported pIC50 belonging to this molecule: Cc1c(C(=O)NC(CCC2CC2)C(=O)N2CCc3c(OCCCN4CCCCC4)cccc32)[nH]c2c1C(=O)CC(C)(C)C2 (stereo not shown) [Example 1-118]
≤ 6.70

src = patent US20230127046A1
